Collected inhibition in vivo at 100 mg/kg values appear next to each entry.
System: Mus musculus
Assay: Antidyslipidemic activity in C57BL/Ks db/db mouse assessed as reduction in plasma triglyceride level at 100 mg/kg, po
Type: functional
Entry format: amount then unit.

So for COc1ccc(-c2cc(-c3ccccc3)no2)c(OCC(O)CN2CCCC2)c1 (centres undefined) , the logged inhibition in vivo at 100 mg/kg turned out to be -8.5%

get_value(item= CCN(CC)CCOc1cc(OC)ccc1-c1cc(-c2ccccc2)no1 , readout=inhibition in vivo at 100 mg/kg) returns -12%

Memo: COc1ccc(-c2cc(-c3ccccc3)no2)c(OCCN2CCCCC2)c1 , reported inhibition in vivo at 100 mg/kg: -7.5%

Entry COc1ccc(-c2cc(-c3ccccc3)no2)c(OCCN2CCCC2)c1 ; inhibition in vivo at 100 mg/kg = -10.5%

====

Tested on: Rattus norvegicus
Experiment: Antihyperglycemic activity against sucrose challenged streptozotocin-induced diabetic Sprague-Dawley albino rat assessed as reduction in blood glucose level at 15 mg/kg, po administered 30 mins before sucrose challenge
Assay type: functional
measuredQuantity: inhibition in vivo at 15 mg/kg (%)
Report the value in % with no unit label.

[
  {
    "compound": "CCN(CC)CCOc1cc(OC)ccc1-c1cc(-c2ccccc2)no1",
    "inhibition in vivo at 15 mg/kg / %": 15.5
  },
  {
    "compound": "COc1ccc(-c2cc(-c3ccccc3)no2)c(OCC(O)CN2CCCC2)c1 (centres undefined)",
    "inhibition in vivo at 15 mg/kg / %": 11.6
  },
  {
    "compound": "COc1ccc(-c2cc(-c3ccccc3)no2)c(OCCN2CCCCC2)c1",
    "inhibition in vivo at 15 mg/kg / %": 12.6
  }
]

Shifting focus to the compound that follows.
// sample COc1ccc(-c2cc(-c3ccccc3)no2)c(OCCN2CCCC2)c1 , its inhibition in vivo at 15 mg/kg was 13.7

====

Target: Tyrosine-protein phosphatase non-receptor type 1 (Homo sapiens, UniProt P18031)
Assay: Inhibition of protein tyrosine phosphatase-1B at 10 uM incubated for 10 mins using pNPP substrate in absence of Triton X-100 by modified Goldstein method
measuredQuantity: IC50

See these solved cases before continuing.
[
  {
    "smilesEntry": "CCN(CC)CCCOc1cc(OC)ccc1-c1cc(-c2ccccc2)no1",
    "IC50": "28 µM"
  },
  {
    "smilesEntry": "COc1ccc(-c2cc(-c3ccccc3)no2)c(OCCN2CCCC2)c1",
    "IC50": "1.5 µM"
  },
  {
    "smilesEntry": "COc1ccc(-c2cc(-c3ccccc3)no2)c(OCCN(C)C)c1",
    "IC50": "24.2 µM"
  },
  {
    "smilesEntry": "COc1ccc(-c2cc(-c3ccccc3)no2)c(OCCN(C(C)C)C(C)C)c1",
    "IC50": "5.5 µM"
  },
  {
    "smilesEntry": "CCCCN(C)CCCOc1cc(OC)ccc1-c1cc(-c2ccccc2)no1",
    "IC50": "37.3 µM"
  }
]

Quick note, IC50 for COc1ccc(-c2cc(-c3ccccc3)no2)c(OCC(=O)O)c1 landed at 9.1 µM

Form field IC50, entry COc1ccc(-c2cc(-c3ccccc3)no2)c(OCCCN2CCCC2)c1 : 3.5 µM

Measured IC50, CCOC(=O)COc1cc(OC)ccc1-c1cc(-c2ccccc2)no1 : 5.25 µM

Given item COc1ccc(-c2cc(-c3ccccc3)no2)c(OCCN2CCOCC2)c1 , the value recorded as its IC50 is 2.5 µM

====

Target: Tyrosine-protein phosphatase non-receptor type 1 (Homo sapiens)
Sequence (P18031 whole entry): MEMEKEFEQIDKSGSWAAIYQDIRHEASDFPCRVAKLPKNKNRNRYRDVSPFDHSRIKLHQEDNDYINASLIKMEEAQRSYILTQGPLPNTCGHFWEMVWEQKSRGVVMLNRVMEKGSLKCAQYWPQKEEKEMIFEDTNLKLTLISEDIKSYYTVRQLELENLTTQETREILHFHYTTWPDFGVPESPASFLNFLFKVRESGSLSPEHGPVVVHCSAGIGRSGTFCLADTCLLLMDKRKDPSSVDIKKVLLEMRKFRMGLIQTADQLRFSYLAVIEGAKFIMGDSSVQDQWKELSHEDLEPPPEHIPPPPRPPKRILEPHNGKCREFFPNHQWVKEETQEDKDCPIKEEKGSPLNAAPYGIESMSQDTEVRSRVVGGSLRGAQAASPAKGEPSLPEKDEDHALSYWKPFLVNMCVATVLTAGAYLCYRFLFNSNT
Test: Inhibition of protein tyrosine phosphatase-1B at 10 uM incubated for 10 mins using pNPP substrate in presence of 0.01% Triton X-100 by modified Goldstein method
measuredQuantity: IC50 (µM)
Give the value in µM but do not write µM after it.

# IC50 of COc1ccc(-c2cc(-c3ccccc3)no2)c(OCCCN2CCCCC2)c1 = 4.42

// sample COc1ccc(-c2cc(-c3ccccc3)no2)c(OCCN(C)C)c1 , its IC50 was 24.3

Lab book: IC50 of CCN(CC)CCOc1cc(OC)ccc1-c1cc(-c2ccccc2)no1 noted as 2.9

// sample COc1ccc(-c2cc(-c3ccccc3)no2)c(OCCCC(=O)O)c1 , its IC50 was 22.4

For reference, reported IC50 for COc1ccc(-c2cc(-c3ccccc3)no2)c(OCCCN(C)C)c1 stands at 25.3

The molecule listed as CCN(CC)CC(O)COc1cc(OC)ccc1-c1cc(-c2ccccc2)no1 (stereo unspecified) shows IC50 equal to 6.89

Form field IC50, entry CCN(CC)CCCOc1cc(OC)ccc1-c1cc(-c2ccccc2)no1 : 28.2

====

// pIC50 lookup, one value per entry
Molecular target: Tyrosine-protein phosphatase non-receptor type 1 (Homo sapiens)
Assay: Inhibition of protein tyrosine phosphatase-1B at 10 uM incubated for 10 mins using pNPP substrate in presence of 0.01% Triton X-100 by modified Goldstein method
Answer as the number alone; pIC50 is minus log10 of concentration in mol/L.

Sample answers from the record:
[
  {
    "smilesEntry": "CCCCN(C)CCCOc1cc(OC)ccc1-c1cc(-c2ccccc2)no1",
    "measuredQuantity": "pIC50",
    "measured": 4.43
  },
  {
    "smilesEntry": "COc1ccc(-c2cc(-c3ccccc3)no2)c(OCC(=O)O)c1",
    "measuredQuantity": "pIC50",
    "measured": 5.03
  },
  {
    "smilesEntry": "COc1ccc(-c2cc(-c3ccccc3)no2)c(O)c1",
    "measuredQuantity": "pIC50",
    "measured": 4.56
  }
]

Now consider a different compound.
For reference, reported pIC50 for COc1ccc(-c2cc(-c3ccccc3)no2)c(OCCN2CCOCC2)c1 stands at 5.58

Just for reference, ChEMBL document CHEMBL1781977 is where these values come from.
